Field: pIC50. Provide a value for each of the compounds that follow.
- testedTarget: Human LBAT (Homo sapiens)
- Construct: Geneticin-selected
- Sequence (Q14973 whole entry): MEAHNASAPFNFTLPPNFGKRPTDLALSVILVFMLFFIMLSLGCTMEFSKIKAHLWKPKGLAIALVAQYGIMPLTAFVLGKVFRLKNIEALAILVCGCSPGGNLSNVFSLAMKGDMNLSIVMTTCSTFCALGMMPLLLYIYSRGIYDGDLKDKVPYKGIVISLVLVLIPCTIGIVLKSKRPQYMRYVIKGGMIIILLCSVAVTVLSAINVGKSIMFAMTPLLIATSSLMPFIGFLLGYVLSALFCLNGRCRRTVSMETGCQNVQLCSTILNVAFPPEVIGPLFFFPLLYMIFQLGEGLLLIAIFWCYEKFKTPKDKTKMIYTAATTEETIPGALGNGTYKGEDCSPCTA
- protocol: LBAT (h/m) assay, human LBAT-overexpressing cells, 3H-taurocholic acid uptake
- experimentalSetup: 0.3 μM 3H-taurocholic acid and 7.5 μM cold taurocholic acid, 20 minutes, read-out: hLBAT IC50
One number for each entry, as −log10 of the molar value.

> print(dat)
                                   compound               testedtarget  measuredmetric  observedmeasurement
1  CCCCC1(CC)CN(c2ccccc2)c2cc(Cl)c(OCCC(=O)O)cc2S(=O)(=O)C1 (single isomer, unassigned) [Example 6]  Human LBAT (Homo sapiens)           pIC50                 6.39

Okay, next one:
Task item: Observed pIC50 on Human LBAT (Homo sapiens) for CCCCC1(CC)CN(c2ccccc2)c2cc(SC)c(OCC(C)(O)C(=O)O)cc2S(=O)(=O)C1 (single isomer, unassigned) [48, diastereomer 2] , please.
Reply: 6.81

###

- testedTarget: Human LBAT (Homo sapiens)
- Construct: Geneticin-selected
- protocol: LBAT (h/m) assay, human LBAT-overexpressing cells, 3H-taurocholic acid uptake
- experimentalSetup: 0.3 μM 3H-taurocholic acid and 7.5 μM cold taurocholic acid, 20 minutes, read-out: hLBAT IC50
measuredMetric: pIC50
Answers are plain numbers, as −log10 of the molar value.

> print(dat)
                                   compound  measuredmetric  observedmeasurement
1  CCCCC1(C)CN(c2ccccc2)c2cc(SC)c(OCC(O)C(=O)O)cc2S(=O)(=O)C1 (single isomer, unassigned) [32, diastereomer 2]           pIC50                 5.39
2  CCCCC1(CC)CN(c2ccccc2)c2cc(SC)c(OCCC(=O)O)cc2S(=O)(=O)C1 (single isomer, unassigned) [Example 13]           pIC50                 6.31

Task item: Record request: pIC50 value, item CCCCC1(CCCC)CN(c2ccc(F)c(F)c2)c2cc(SC)c(OCCC(=O)O)cc2S(=O)(=O)C1
Reply: 6.04

###

- testedTarget: Human IBAT (Homo sapiens)
- Construct: Puromycin-selected
- Sequence (Q12908 whole entry): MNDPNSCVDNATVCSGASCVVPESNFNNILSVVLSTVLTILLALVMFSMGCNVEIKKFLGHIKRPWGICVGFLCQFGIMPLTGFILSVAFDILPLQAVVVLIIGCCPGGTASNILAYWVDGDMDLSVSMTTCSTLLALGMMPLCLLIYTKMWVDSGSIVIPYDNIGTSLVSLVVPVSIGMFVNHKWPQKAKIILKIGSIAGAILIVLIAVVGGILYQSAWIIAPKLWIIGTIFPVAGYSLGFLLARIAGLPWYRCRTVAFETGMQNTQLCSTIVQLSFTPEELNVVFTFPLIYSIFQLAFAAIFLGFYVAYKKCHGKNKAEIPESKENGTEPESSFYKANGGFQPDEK
- protocol: IBAT (h/m) assay, human IBAT-overexpressing cells, 3H-taurocholic acid uptake
- experimentalSetup: 0.25 μM 3H-taurocholic acid and 5 μM cold taurocholic acid, 20 minutes, read-out: hIBAT IC50
Consider the cut-off 40 nM. If the recorded IC50 is strictly smaller, the label is Met; if not, the label is Not met.

Solved entries (count: 5):
> print(dat)
                                   molecule               testedtarget  labelvalue
1  CCCCC1(CC)CN(c2ccccc2)c2cc(OC)c(OCCC(=O)O)cc2S(=O)(=O)C1 (single isomer, unassigned) [44, enantiomer 1]  Human IBAT (Homo sapiens)     Not met
2  CCCCC1(CC)CN(c2ccccc2)c2cc(N(C)C)c(OCCC(=O)O)cc2S(=O)(=O)C1 (single isomer, unassigned) [Example 17]  Human IBAT (Homo sapiens)         Met
3  CCCCC1(C)CN(c2ccccc2)c2cc(N(C)C)c(OCCC(=O)O)cc2S(=O)(=O)C1 (single isomer, unassigned) [29, enantiomer 2]  Human IBAT (Homo sapiens)     Not met
4  CCCCC1(CC)CN(c2ccccc2)c2cc(Cl)c(OCCC(=O)O)cc2S(=O)(=O)C1 (racemic) [Example 5]  Human IBAT (Homo sapiens)         Met
5  CCCCC1(CC)CN(c2ccc(F)cc2)c2cc(SC)c(OCC(O)C(=O)O)cc2S(=O)(=O)C1 (single isomer, unassigned) [42, diastereomer 2]  Human IBAT (Homo sapiens)         Met

Task item: Report whether reported IC50 is lower than 40 nM (strictly) for CCCCC1(CC)CN(c2ccccc2)c2cc(N(C)C)c(OCCC(=O)O)cc2S(=O)(=O)C1 (racemic) [Example 16]
Reply: Met
